tested on: T47D; experiment: NCI tumour cell line growth inhibition, 48 h
Activity calls are given as the source filed them. No stated cut-off is given here; in the data, active = GI50 up to about 1.1 µM and inactive = higher.
Outcomes you can answer with include only these: yes (active), no (inactive)

Per the assay record, what outcome was assigned to "CCCCN(CCCC)C(=C(C(Cl)=C(Cl)Cl)[N+](=O)[O-])N(CCCC)CCCC" ?
no

Per the assay record, what outcome was assigned to "Cc1c(C#N)c(=N)oc2ccccc12" ?
no

Per the assay record, what outcome was assigned to "CCCCOCCOCCOC1=C(Cl)C(=O)c2c(O)ccc(O)c2C1=O" ?
yes

Continuing:
Per the assay record, what outcome was assigned to CC(=O)N(C(=O)CC(=O)N1N=C(c2ccccc2)C(/N=N/c2ccccc2[N+](=O)[O-])C1=O)c1ccc(Cl)cc1 (stereo not given) ?
no

Per the assay record, what outcome was assigned to "O=C1C(Br)=CC2(C=C1Br)CCNC1=C2C2=NCCc3c[nH]c(c32)C1=O" ?
yes

Per the assay record, what outcome was assigned to "CCOC(CN=C=S)OCC" ?
no

Per the assay record, what outcome was assigned to "COc1cc(N(CCC#N)CCC#N)ccc1C(=N/NC(=O)c1cc(Br)ccc1O)/N=N/c1ccccc1" ?
no

Per the assay record, what outcome was assigned to "COc1cc2c(cc1OC)-c1cc3cc(OC)c(OC)cc3c(C)[n+]1CC2.O=C([O-])CS(=O)(=O)O" ?
no

Per the assay record, what outcome was assigned to "C1C2CC3CC1CC(Nc1nc(NC45CC6CC(CC(C6)C4)C5)nc(NC45CC6CC(CC(C6)C4)C5)n1)(C2)C3" ?
no

Per the assay record, what outcome was assigned to COc1cc(C2C3=C(COC3=O)Oc3cc4c(cc32)OCO4)ccc1OC(C)=O (stereo not given) ?
yes

----------
test system: HOP-92; assay: NCI tumour cell line growth inhibition, 48 h
Calls of active or inactive are those of the source. Rule as the data show it: active = GI50 up to about 1.1 µM and inactive = higher.
Outcomes you can answer with include only these: label 1 for active, label 0 for inactive

Per the assay record, what outcome was assigned to "COc1cc(/C=C(\OC(C)=O)c2ccc3c(c2)OCO3)cc(OC)c1OC" ?
label 0

Per the assay record, what outcome was assigned to O=C1CCC(Cl)=CC2CCCN12 (stereo not drawn) ?
label 0

Continuing:
Per the assay record, what outcome was assigned to "COc1cc(C(=O)Oc2c(C#N)sc3c2c(=O)n(-c2ccccc2)c(=S)n3-c2ccccc2)cc(OC)c1OC" ?
label 0

Per the assay record, what outcome was assigned to "CCOP(=O)(OCC)Oc1c(OC)c2[nH]c(C(=O)OC)cc2c2c(C(=O)O)c[nH]c12" ?
label 0

Per the assay record, what outcome was assigned to CC1OC(OC2C(O)COC(OC3C(C)OC(OC4C(OC(=O)[C@]56CCC(C)(C)C[C@@H]5C5=CCC7[C@@]8(C)C[C@H](O)[C@H](OC9OC(CO)C(O)C(O)C9O)[C@@](C)(CO)[C@@H]8CC[C@@]7(C)[C@]5(C)CC6)OCC(O)C4O)C(O)C3OC3OCC(O)(CO)C3O)C2O)C(O)C(O)C1O (stereo partly drawn) ?
label 0

----------
system: SK-MEL-2; assay: NCI tumour cell line growth inhibition, 48 h
Calls of active or inactive are those of the source. No stated cut-off is given here; in the data, active = GI50 up to about 1.1 µM and inactive = higher.
reportedEndpoint: GI50

So what does the record say about GI50 for "C1C2CC3CC1CC(Nc1nc(NC45CC6CC(CC(C6)C4)C5)nc(NC45CC6CC(CC(C6)C4)C5)n1)(C2)C3" ?
> 70 µM (inactive)

So what does the record say about GI50 for O=C(Nc1ccc([N+](=O)[O-])cc1)C1C(=O)C(=O)N(c2ccc([N+](=O)[O-])cc2)C1=O (stereo not given) ?
> 100 µM (inactive)
